SYSTEM TESTED: Lysophosphatidic acid receptor 1 (Homo sapiens)
ASSAY COMMENT: In vitro ability to antagonize LPA-evoked [35S]GTP-gamma-S binding to lysophosphatidic acid receptor 1 in HEK293T cell lines
pIC50: −log10 of the molar value.
// reported pIC50 for each item listed

Would you please look over these solved cases?
[
  {
    "COMPOUND": "CCCCCCCC/C=C\\CCCCCCCC(=O)N[C@H](COP(=O)(O)O)Cc1ccc(Oc2cc3ccccc3[nH]2)cc1",
    "ASSAY READOUT": "pIC50",
    "RESULT": "< 5.00"
  },
  {
    "COMPOUND": "CCCCCCCCCCCCCCCC(=O)NC(COP(=O)(O)O)Cc1ccc(OCc2ccccc2)cc1 (centres undefined)",
    "ASSAY READOUT": "pIC50",
    "RESULT": "< 5.00"
  }
]

Incoming: Give pIC50 for this entry on Lysophosphatidic acid receptor 1 (Homo sapiens): CCCCCCCC/C=C\CCCCCCCC(=O)N[C@@H](COP(=O)(O)O)Cc1ccc(Oc2cc3ccccc3[nH]2)cc1
Outgoing: 5.15

Incoming: Give pIC50 for this entry on Lysophosphatidic acid receptor 1 (Homo sapiens): C#CCOc1ccc(C[C@@H](COP(=O)(O)O)NC(=O)CCCCCCC/C=C\CCCCCCCC)cc1
Outgoing: < 5.00

###

// reported pIC50 for each item listed
SYSTEM TESTED: Lysophosphatidic acid receptor 3 (Homo sapiens)
ASSAY COMMENT: In vitro antagonism of LPA-evoked [35S]GTP-gamma-S binding to lysophosphatidic acid receptor 3 in HEK293T cell lines
pIC50: −log10 of the molar value.

Would you please look over these solved cases?
[
  {
    "MOLECULE": "CCCCCCCCCCCCCC(=O)NC(COP(=O)(O)O)Cc1ccc(OCc2ccccc2)cc1 (centres undefined)",
    "SYSTEM TESTED": "Lysophosphatidic acid receptor 3 (Homo sapiens)",
    "pIC50": "< 5.00"
  },
  {
    "MOLECULE": "C#CCCCCOc1ccc(C[C@H](COP(=O)(O)O)NC(=O)CCCCCCC/C=C\\CCCCCCCC)cc1",
    "SYSTEM TESTED": "Lysophosphatidic acid receptor 3 (Homo sapiens)",
    "pIC50": 5.48
  },
  {
    "MOLECULE": "CCCCCCCC/C=C\\CCCCCCCC(=O)N[C@@H](COP(=O)(O)O)Cc1ccc(OC)cc1",
    "SYSTEM TESTED": "Lysophosphatidic acid receptor 3 (Homo sapiens)",
    "pIC50": "< 5.00"
  }
]

Incoming: Answer with the recorded pIC50 of CCCCCCCC(=O)NC(COP(=O)(O)O)Cc1ccc(OCc2ccccc2)cc1 (centres undefined) only.
Outgoing: < 5.00

###

SYSTEM TESTED: Lysophosphatidic acid receptor 1 (Homo sapiens, UniProt Q92633)
Sequence (Q92633 whole entry): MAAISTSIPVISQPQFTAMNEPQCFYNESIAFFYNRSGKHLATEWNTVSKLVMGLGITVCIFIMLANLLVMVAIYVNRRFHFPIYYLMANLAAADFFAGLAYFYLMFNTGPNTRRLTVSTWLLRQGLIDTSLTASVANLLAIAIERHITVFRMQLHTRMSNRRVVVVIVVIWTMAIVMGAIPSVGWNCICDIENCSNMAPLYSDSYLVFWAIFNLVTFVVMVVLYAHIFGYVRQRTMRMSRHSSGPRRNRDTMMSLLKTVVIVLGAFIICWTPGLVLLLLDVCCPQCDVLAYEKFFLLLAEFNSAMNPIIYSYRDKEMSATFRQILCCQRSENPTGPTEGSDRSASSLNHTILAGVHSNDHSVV
ASSAY COMMENT: In vitro ability to antagonize LPA-evoked [35S]GTP-gamma-S binding to lysophosphatidic acid receptor 1 in HEK293T cell lines
// reported IC50 for each item listed

Would you please look over these solved cases?
[
  {
    "MOLECULE": "CCCCCCCC/C=C\\CCCCCCCC(=O)N[C@H](COP(=O)(O)O)Cc1ccc(OC(=O)c2ccc(N)cc2)cc1",
    "SYSTEM TESTED": "Lysophosphatidic acid receptor 1 (Homo sapiens, UniProt Q92633)",
    "RESULT": "> 10 µM"
  },
  {
    "MOLECULE": "CCCCCCCCCCCCCC(=O)NC(COP(=O)(O)O)Cc1ccc(OCc2ccccc2)cc1 (centres undefined)",
    "SYSTEM TESTED": "Lysophosphatidic acid receptor 1 (Homo sapiens, UniProt Q92633)",
    "RESULT": "9.03 µM"
  },
  {
    "MOLECULE": "CCCCCCCC/C=C\\CCCCCCCC(=O)N[C@@H](COP(=O)(O)O)Cc1ccc(OC(=O)c2cc(OC)c(OC)c(OC)c2)cc1",
    "SYSTEM TESTED": "Lysophosphatidic acid receptor 1 (Homo sapiens, UniProt Q92633)",
    "RESULT": "> 10 µM"
  }
]

Here is the next item to consider.
Incoming: Answer with the recorded IC50 of CCCCCCCC/C=C\CCCCCCCC(=O)N[C@@H](COP(=O)(O)O)Cc1ccc(OCC2CCCCC2)cc1 only.
Outgoing: > 10 µM

###

SYSTEM TESTED: Lysophosphatidic acid receptor 3 (Homo sapiens)
ASSAY COMMENT: In vitro antagonism of LPA-evoked [35S]GTP-gamma-S binding to lysophosphatidic acid receptor 3 in HEK293T cell lines
pIC50: −log10 of the molar value.
// reported pIC50 for each item listed

[
  {
    "STRUCTURE AS SMILES": "CCCCCCCC/C=C\\CCCCCCCC(=O)N[C@@H](COP(=O)(O)O)Cc1ccc(OCc2ccccc2)cc1",
    "pIC50": "< 5.00"
  }
]

Incoming: Answer with the recorded pIC50 of C=CCOc1ccc(C[C@@H](COP(=O)(O)O)NC(=O)CCCCCCC/C=C\CCCCCCCC)cc1 only.
Outgoing: < 5.00

Incoming: Answer with the recorded pIC50 of CCCCCCCC/C=C\CCCCCCCC(=O)N[C@H](COP(=O)(O)O)Cc1ccc(OCc2ccccc2)cc1 only.
Outgoing: < 5.00

###

SYSTEM TESTED: UniProt Q92633
ASSAY COMMENT: In vitro ability to antagonize LPA-evoked [35S]GTP-gamma-S binding to lysophosphatidic acid receptor 1 in HEK293T cell lines
// reported IC50 for each item listed

Would you please look over these solved cases?
[
  {
    "STRUCTURE AS SMILES": "CCCCCCCC/C=C\\CCCCCCCC(=O)N[C@@H](COP(=O)(O)O)Cc1ccc(OCC)cc1",
    "RESULT": "> 10 µM"
  },
  {
    "STRUCTURE AS SMILES": "CCCCCCCC/C=C\\CCCCCCCC(=O)N[C@H](COP(=O)(O)O)Cc1ccc(OCc2ccccc2)cc1",
    "RESULT": "> 10 µM"
  }
]

Here is the next item to consider.
Incoming: Give IC50 for this entry on UniProt Q92633: C=CCOc1ccc(C[C@@H](COP(=O)(O)O)NC(=O)CCCCCCC/C=C\CCCCCCCC)cc1
Outgoing: > 10 µM

###

SYSTEM TESTED: UniProt Q9UBY5
Sequence (Q9UBY5 whole entry): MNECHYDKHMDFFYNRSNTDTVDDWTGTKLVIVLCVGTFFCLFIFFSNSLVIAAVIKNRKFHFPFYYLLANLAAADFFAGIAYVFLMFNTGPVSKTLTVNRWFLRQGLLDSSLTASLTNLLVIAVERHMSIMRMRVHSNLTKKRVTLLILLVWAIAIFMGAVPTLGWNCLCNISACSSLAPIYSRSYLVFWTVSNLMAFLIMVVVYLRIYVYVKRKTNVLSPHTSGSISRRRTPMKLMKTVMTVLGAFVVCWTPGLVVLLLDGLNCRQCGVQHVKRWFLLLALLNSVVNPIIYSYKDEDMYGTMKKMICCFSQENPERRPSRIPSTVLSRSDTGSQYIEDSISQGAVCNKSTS
ASSAY COMMENT: In vitro antagonism of LPA-evoked [35S]GTP-gamma-S binding to lysophosphatidic acid receptor 3 in HEK293T cell lines
pIC50: −log10 of the molar value.
ASSAY READOUT: pIC50

Would you please look over these solved cases?
[
  {
    "COMPOUND": "CCCCCCCC/C=C\\CCCCCCCC(=O)N[C@H](COP(=O)(O)O)Cc1ccc(OC(=O)c2ccc(CCCCC)cc2)cc1",
    "pIC50": "< 5.00"
  },
  {
    "COMPOUND": "CCCCCCCCCCCCCCCCCC(=O)N[C@@H](COP(=O)(O)O)Cc1ccc(OC2O[C@H](CO)[C@@H](O)[C@H](O)[C@H]2O)cc1 (stereo partly drawn)",
    "pIC50": "< 5.00"
  }
]

Here is the next item to consider.
Incoming: Answer with the recorded pIC50 of CCCCCCCC/C=C\CCCCCCCC(=O)N[C@H](COP(=O)(O)O)Cc1ccc(OC(=O)c2ccc(N)cc2)cc1 only.
Outgoing: < 5.00

Origin of values: ChEMBL document CHEMBL1137927
